experiment: M. tuberculosis H37Rv growth inhibitors, H37Rv strain (AID 1626); settings: hits give high values, concentration not given here;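 note: bacteria incubated seven days before Alamar blue readout; 0% = bacteria only wells and 100% = bacteria with antibiotic wells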
Out of some 220,000 compounds screened, about 2,000 (0.91%) were called active. Inconclusive results (about 2%) are left out. A selection follows. Entries with a potency or affinity are not part of this list.
Metric: inhibition (%)
Numbers only here, please. The scale is %.

Fill blank: measured inhibition of the compound CCCNC(=O)C1CCN(S(=O)(=O)c2cccc3nonc23)CC1 is ____. 3.34

Next compound: Fc1ccc(CNC(=S)NC2CCCC2)cc1 2.21

Next compound: Clc1cccc(-c2ccc(C=Nc3ccc(N4CCOCC4)cc3)o2)c1 32.1

Next compound: CCOCCCNC(=O)c1cc2c(=O)n3cccc(C)c3nc2n1C 1.27

Next compound: O=C1Nc2ccccc2N(O)N1c1ccc(Cl)cc1 -3.86

Numbers sourced from PubChem BioAssay AID1626.
